Source of measurements: PubChem BioAssay (Tox21)

experiment: qHTS assay to test for compound auto fluorescence at 460 nm (blue) in HepG2 cell free culture (AID 720685); settings: Cell-free culture medium, blue autofluorescence 405/460 nm; series mostly up to 46 µM
Active and inactive are the calls of the source. Calls follow the shape of the dose curve; as a rule, active = well fitted curve in the direction sought with a large enough effect in the repeat runs; inconclusive = weak or mixed curves; inactive = flat fitted curve, though single readings scatter.
parameter: outcome

{"columns": ["molecule", "result"],
 "data": [
  ["O=C(NC(=O)c1c(F)cccc1F)Nc1ccc(Cl)c(Oc2ncc(C(F)(F)F)cc2Cl)c1", "inactive"],
  ["OC[C@@H](O)[C@H]1O[C@@H]2O[C@@H](C(Cl)(Cl)Cl)O[C@@H]2[C@H]1O", "inactive"],
  ["C=CCC1(C(C)CCC)C(=O)N=C(S)NC1=O (stereo unspecified)", "inactive"],
  ["COc1ccc2c3c1O[C@H]1[C@@H](O)C=C[C@H]4[C@@H](C2)NCC[C@@]341", "inactive"],
  ["O=C1CCO1", "inactive"],
  ["CN(C)CCCCCCN(C)C", "inactive"]
]}

====

assay: qHTS assay to identify small molecule antagonists of the estrogen receptor alpha (ER-alpha) signaling pathway using the BG1 cell line - cell viability counter screen (AID 743081); conditions: BG1Luc4E2 viability, CellTiter-Fluor, 22 h; series mostly up to 70.3 µM;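 also: compound given together with 17beta-estradiol as the ER stimulus; nearly all actives have a fitted effect of over 45% in size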
Results filed as inconclusive are left out. Calls of active or inactive are those of the source. Calls follow the shape of the dose curve; as a rule, active = well fitted cell-killing curve with a large enough effect in the repeat runs; inconclusive = weak or mixed curves, or effect the other way; inactive = flat fitted curve, though single readings scatter.
parameter: outcome

{"columns": ["compound", "parameter", "result"],
 "data": [
  ["Cc1ccccc1-n1c(CF)nc2ccc(N)cc2c1=O", "outcome", "inactive"],
  ["C[C@]12CC[C@@H]3c4ccc(OC(=O)N(CCCl)CCCl)cc4CC[C@H]3[C@@H]1CC[C@@H]2OP(=O)(O)O", "outcome", "inactive"],
  ["O.O.O.O=C([O-])C(O)C(O)C(=O)[O-].O=C([O-])C(O)C(O)C(=O)[O-].[K+].[K+].[Sb].[Sb] (stereo not given)", "outcome", "inactive"],
  ["CCCC(=O)OC(C(Cl)(Cl)Cl)P(=O)(OC)OC (stereo not given)", "outcome", "inactive"],
  ["CCCCCCCCCC(=O)O[C@H]1CC[C@H]2[C@@H]3CCC4=CC(=O)CC[C@]4(C)[C@H]3CC[C@]12C", "outcome", "inactive"]
]}

====

molecular target: Cytochrome P450 1A2 (Homo sapiens) (UniProt P05177); test: Cytochrome P450 Family 1 Subfamily A Member 2 (CYP1A2) small molecule antagonists: luciferase reporter qHTS assay (AID 1671199); conditions: P450-Glo CYP1A2 enzyme, luciferin luminescence, 1 h; series mostly up to 115 µM; also: nearly all actives have a fitted effect of over 50% in size
Sequence (P05177 whole entry, looked up): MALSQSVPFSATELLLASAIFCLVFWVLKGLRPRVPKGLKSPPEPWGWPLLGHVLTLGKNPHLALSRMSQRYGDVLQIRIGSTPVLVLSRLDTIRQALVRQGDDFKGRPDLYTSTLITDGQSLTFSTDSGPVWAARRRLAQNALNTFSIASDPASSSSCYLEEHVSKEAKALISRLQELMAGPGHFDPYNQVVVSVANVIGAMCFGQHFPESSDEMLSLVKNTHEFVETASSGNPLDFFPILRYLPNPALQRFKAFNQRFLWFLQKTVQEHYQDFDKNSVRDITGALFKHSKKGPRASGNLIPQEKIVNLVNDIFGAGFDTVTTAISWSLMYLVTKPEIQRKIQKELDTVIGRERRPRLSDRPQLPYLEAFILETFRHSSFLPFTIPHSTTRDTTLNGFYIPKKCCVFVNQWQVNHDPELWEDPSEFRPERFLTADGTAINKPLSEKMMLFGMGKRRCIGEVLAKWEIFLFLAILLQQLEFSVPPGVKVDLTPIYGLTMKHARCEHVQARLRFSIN
Results filed as inconclusive are left out. Calls of active or inactive are those of the source. The call rests on the fitted dose curve; in most records, active means well fitted inhibition curve with a large enough effect in the repeat runs; inconclusive means weak or mixed curves; inactive means no such curve, though single readings can be large or run the other way.
Labels: active, inactive

{"columns": ["smilesText", "groupLabel"],
 "data": [
  ["Cc1ccc(N(SC(F)(Cl)Cl)S(=O)(=O)N(C)C)cc1", "active"],
  ["Cc1cc(C)c(C(=O)P(=O)(c2ccccc2)c2ccccc2)c(C)c1", "inactive"],
  ["CCN(CC)C(=O)Cl", "inactive"],
  ["O=C(c1ccccc1)C(Cl)Cl", "active"],
  ["O=S(=O)(C(Cl)(Cl)Cl)C(Cl)(Cl)Cl", "active"]
]}

====

molecular target: Acetylcholinesterase (Homo sapiens) (UniProt P22303); assay: Acetylcholinesterase (AChE) small molecule antagonists: enzyme-based qHTS assay (AID 1347397); conditions: AChE enzyme activity inhibition; series mostly up to 115 µM; also: nearly all actives have a fitted effect of over 55% in size
Sequence (P22303 whole entry, looked up): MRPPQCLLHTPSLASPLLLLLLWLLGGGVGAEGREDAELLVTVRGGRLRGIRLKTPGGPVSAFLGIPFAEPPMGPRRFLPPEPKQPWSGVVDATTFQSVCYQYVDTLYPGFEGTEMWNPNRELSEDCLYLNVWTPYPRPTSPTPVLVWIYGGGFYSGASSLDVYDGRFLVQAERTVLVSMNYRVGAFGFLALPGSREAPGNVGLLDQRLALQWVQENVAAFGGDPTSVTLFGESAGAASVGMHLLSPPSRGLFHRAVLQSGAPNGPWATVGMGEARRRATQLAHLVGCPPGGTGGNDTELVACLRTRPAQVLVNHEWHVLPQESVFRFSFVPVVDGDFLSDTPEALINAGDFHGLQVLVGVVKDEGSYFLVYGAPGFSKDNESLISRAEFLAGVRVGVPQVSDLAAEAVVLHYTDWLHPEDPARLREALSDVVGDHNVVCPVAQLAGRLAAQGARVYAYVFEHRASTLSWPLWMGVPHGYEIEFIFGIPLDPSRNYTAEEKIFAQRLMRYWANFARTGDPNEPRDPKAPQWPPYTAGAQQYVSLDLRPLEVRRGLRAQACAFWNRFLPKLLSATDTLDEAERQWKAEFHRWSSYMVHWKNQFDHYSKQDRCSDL
Active and inactive are the calls of the source. Calls come from the whole dose curve. Non-standard residues stand in square brackets, D forms with d. Residues, ends and D or L forms follow the SMILES beside them. *: point of attachment. Sta = CC(C)C[C@H](N)[C@@H](O)CC(=O)O; Isovaleryl = CC(C)CC(=O)*

{"columns": ["compound", "target", "outcome"],
 "data": [
  ["CC(C)c1cccc(O)c1", "Acetylcholinesterase (Homo sapiens) (UniProt P22303)", "inactive"],
  ["F[B-](F)(F)F", "Acetylcholinesterase (Homo sapiens) (UniProt P22303)", "inactive"],
  ["CCOC(=O)[C@H](O)[C@@H](O)C(=O)OCC", "Acetylcholinesterase (Homo sapiens) (UniProt P22303)", "inactive"],
  ["O=C(OCCCCCCOC(=O)c1ccccc1)c1ccccc1", "Acetylcholinesterase (Homo sapiens) (UniProt P22303)", "inactive"],
  ["CCCC1CCC(=O)O1 (stereo not given)", "Acetylcholinesterase (Homo sapiens) (UniProt P22303)", "inactive"],
  ["Nc1ccc(N)c2c1C(=O)c1ccccc1C2=O", "Acetylcholinesterase (Homo sapiens) (UniProt P22303)", "inactive"],
  ["CCCc1ccccc1O", "Acetylcholinesterase (Homo sapiens) (UniProt P22303)", "inactive"],
  ["C[C@H]1[C@@H](c2ccccc2)NC(=O)N1C", "Acetylcholinesterase (Homo sapiens) (UniProt P22303)", "inactive"],
  ["CC(C)c1ccccc1C(C)C", "Acetylcholinesterase (Homo sapiens) (UniProt P22303)", "inactive"],
  ["O=c1cc(O)c(Cl)c[nH]1", "Acetylcholinesterase (Homo sapiens) (UniProt P22303)", "inactive"],
  ["CCCC(C)C", "Acetylcholinesterase (Homo sapiens) (UniProt P22303)", "inactive"],
  ["COc1ccc(CCN(C)CCCC(C#N)(c2ccc(OC)c(OC)c2)C(C)C)cc1OC (stereo not given)", "Acetylcholinesterase (Homo sapiens) (UniProt P22303)", "inactive"],
  ["NS(=O)(=O)c1ccc(N2CCCCS2(=O)=O)cc1", "Acetylcholinesterase (Homo sapiens) (UniProt P22303)", "inactive"],
  ["O=C(Nc1ccccc1-c1ccc(Cl)cc1)c1cccnc1Cl", "Acetylcholinesterase (Homo sapiens) (UniProt P22303)", "inactive"],
  ["NC(=O)NS(=O)(=O)c1ccc(N)cc1", "Acetylcholinesterase (Homo sapiens) (UniProt P22303)", "inactive"],
  ["CC1CCc2cc(F)cc3c(=O)c(C(=O)O)cn1c23 (stereo not given)", "Acetylcholinesterase (Homo sapiens) (UniProt P22303)", "inactive"],
  ["C=C(C)C1CC=C(C)C(=O)C1 (stereo not given)", "Acetylcholinesterase (Homo sapiens) (UniProt P22303)", "inactive"],
  ["c1ccc2c(c1)CCc1ccccc1N2", "Acetylcholinesterase (Homo sapiens) (UniProt P22303)", "inactive"],
  ["C=C(C)C(=O)OCC(O)CO (stereo not given)", "Acetylcholinesterase (Homo sapiens) (UniProt P22303)", "inactive"],
  ["O=C(O)c1cccc(O)c1", "Acetylcholinesterase (Homo sapiens) (UniProt P22303)", "inactive"],
  ["NC(N)=S", "Acetylcholinesterase (Homo sapiens) (UniProt P22303)", "inactive"],
  ["OCc1ccccc1", "Acetylcholinesterase (Homo sapiens) (UniProt P22303)", "inactive"],
  ["O=C(O)CCCCC1CCSS1 (stereo not given)", "Acetylcholinesterase (Homo sapiens) (UniProt P22303)", "inactive"],
  ["Fc1c(F)c(F)c(Br)c(F)c1F", "Acetylcholinesterase (Homo sapiens) (UniProt P22303)", "inactive"],
  ["Cc1cccc2sc(N)nc12", "Acetylcholinesterase (Homo sapiens) (UniProt P22303)", "inactive"],
  ["C=C1C(=C/C=C2\\CCC[C@]3(C)[C@@H]([C@H](C)/C=C/[C@@H](O)C4CC4)CC[C@@H]23)C[C@@H](O)C[C@@H]1O", "Acetylcholinesterase (Homo sapiens) (UniProt P22303)", "inactive"],
  ["CC(C)(C)C(=O)NCCCC(=O)O", "Acetylcholinesterase (Homo sapiens) (UniProt P22303)", "inactive"],
  ["CC(=O)N1C[C@H](O)C[C@H]1C(=O)O", "Acetylcholinesterase (Homo sapiens) (UniProt P22303)", "inactive"],
  ["CC(C)CC(=O)N[C@H](C(=O)N[C@H](C(=O)N[C@@H](CC(C)C)[C@@H](O)CC(=O)N[C@@H](C)C(=O)N[C@@H](CC(C)C)[C@@H](O)CC(=O)O)C(C)C)C(C)C (Isovaleryl-VV[Sta]A[Sta]-OH)", "Acetylcholinesterase (Homo sapiens) (UniProt P22303)", "inactive"],
  ["O=C1OCCN1/N=C/c1ccc([N+](=O)[O-])o1", "Acetylcholinesterase (Homo sapiens) (UniProt P22303)", "inactive"],
  ["NC1CCCCC1", "Acetylcholinesterase (Homo sapiens) (UniProt P22303)", "inactive"],
  ["CN(C)c1ccc(O)c2c1C[C@H]1C[C@H]3[C@H](N(C)C)C(=O)C(C(N)=O)=C(O)[C@@]3(O)C(=O)C1=C2O", "Acetylcholinesterase (Homo sapiens) (UniProt P22303)", "inactive"],
  ["Nc1nccs1", "Acetylcholinesterase (Homo sapiens) (UniProt P22303)", "inactive"],
  ["c1ccc(-c2ccccc2-c2ccccc2)cc1", "Acetylcholinesterase (Homo sapiens) (UniProt P22303)", "inactive"],
  ["O=C(c1ccc(O)cc1)c1ccc(O)cc1", "Acetylcholinesterase (Homo sapiens) (UniProt P22303)", "inactive"],
  ["C=C[C@@H](C)CCC=C(C)C", "Acetylcholinesterase (Homo sapiens) (UniProt P22303)", "inactive"],
  ["COc1cc2c(cc1OC)-c1cc(=Nc3c(C)cc(C)cc3C)n(C)c(=O)n1CC2", "Acetylcholinesterase (Homo sapiens) (UniProt P22303)", "inactive"],
  ["CCC(C)(C)c1cc(O)c(C(C)(C)CC)cc1O", "Acetylcholinesterase (Homo sapiens) (UniProt P22303)", "inactive"],
  ["Cc1ccc2nc(-c3ccc(N)cc3)sc2c1S(=O)(=O)O", "Acetylcholinesterase (Homo sapiens) (UniProt P22303)", "inactive"],
  ["CN(C)c1ccncc1", "Acetylcholinesterase (Homo sapiens) (UniProt P22303)", "inactive"],
  ["C=CCc1ccc(OC)c(OC)c1", "Acetylcholinesterase (Homo sapiens) (UniProt P22303)", "inactive"],
  ["O=C(Cl)c1c(Cl)c(Cl)c(C(=O)Cl)c(Cl)c1Cl", "Acetylcholinesterase (Homo sapiens) (UniProt P22303)", "inactive"],
  ["CC(CO)(CO)C(=O)O", "Acetylcholinesterase (Homo sapiens) (UniProt P22303)", "inactive"],
  ["CCCCCCCCCCCCCCC(=O)O", "Acetylcholinesterase (Homo sapiens) (UniProt P22303)", "inactive"],
  ["c1ccc(CSCc2ccccc2)cc1", "Acetylcholinesterase (Homo sapiens) (UniProt P22303)", "inactive"],
  ["CN(C)CCCN(C)CCCN(C)C", "Acetylcholinesterase (Homo sapiens) (UniProt P22303)", "inactive"],
  ["C=C(C)C(=O)O[C@H]1C[C@@H]2CC[C@@]1(C)C2(C)C", "Acetylcholinesterase (Homo sapiens) (UniProt P22303)", "inactive"],
  ["CCCc1c2oc(C(=O)O)cc(=O)c2cc2c(=O)cc(C(=O)O)n(CC)c12", "Acetylcholinesterase (Homo sapiens) (UniProt P22303)", "inactive"],
  ["C=C(C)C(=O)OCCCCCCCCCCCCC", "Acetylcholinesterase (Homo sapiens) (UniProt P22303)", "inactive"],
  ["O=C=NC1CCC(CC2CCC(N=C=O)CC2)CC1 (stereo not given)", "Acetylcholinesterase (Homo sapiens) (UniProt P22303)", "inactive"],
  ["O=S1(=O)c2cccc3cccc(c23)N1CCCN1CCN(c2ccc(F)cc2)CC1", "Acetylcholinesterase (Homo sapiens) (UniProt P22303)", "inactive"],
  ["O=[N+]([O-])c1ccc(/C=N\\O)o1", "Acetylcholinesterase (Homo sapiens) (UniProt P22303)", "inactive"],
  ["CN(C)c1ccc(N=NS(=O)(=O)O)cc1", "Acetylcholinesterase (Homo sapiens) (UniProt P22303)", "inactive"],
  ["CCc1cccc(O)c1", "Acetylcholinesterase (Homo sapiens) (UniProt P22303)", "inactive"],
  ["O=C1c2ccccc2C(=O)c2cc(S(=O)(=O)O)ccc21", "Acetylcholinesterase (Homo sapiens) (UniProt P22303)", "inactive"]
]}
